Source of measurements: patent US10745395B2

- Test system: P. aeruginosa strain PAR 20
- Procedure text: Number of viable bacteria in early and mature biofilm (viable count)
- Format: cell-based, Pseudomonas aeruginosa
- Assay context: early biofilm, 48 h
Experimental endpoint: number of viable P. aeruginosa

The examples below pair each entry with its known result.
CCCCCC[C@H]1NC[C@@H](O)[C@H](O)[C@H]1O [Compound 1] :: 4 × 10^8 CFU/ml
CCC[C@H]1N[C@@H](CO)[C@H](O)[C@H]1O [Compound 4] :: 3 × 10^9 CFU/ml
COc1ccc(C[C@@H]2CCC[C@@H]3[C@H](O)[C@@H](O)[C@H](CO)N23)cc1 [Compound 3] :: 3 × 10^9 CFU/ml

Read the next record carefully.
Fill in number of viable P. aeruginosa for record OCC(O)C[C@H]1NC[C@H](O)[C@H](O)[C@H]1O (stereo partly shown) [Compound 2]
1 × 10^9 CFU/ml

----------
- Tested on: P. aeruginosa strain PAR 5
- Procedure text: Number of viable bacteria in early and mature biofilm (viable count)
- Format: cell-based, Pseudomonas aeruginosa
- Assay context: early biofilm, 8 h
Experimental endpoint: number of viable P. aeruginosa

OCC(O)C[C@H]1NC[C@H](O)[C@H](O)[C@H]1O (stereo partly shown) :: 2 × 10^7 CFU/ml

Provide only the value of recorded number of viable P. aeruginosa for COc1ccc(C[C@@H]2CCC[C@@H]3[C@H](O)[C@@H](O)[C@H](CO)N23)cc1
4 × 10^7 CFU/ml

State its number of viable P. aeruginosa: CCCCCC[C@H]1NC[C@@H](O)[C@H](O)[C@H]1O
3 × 10^7 CFU/ml

Return number of viable P. aeruginosa (reported value) for this compound: CCC[C@H]1N[C@@H](CO)[C@H](O)[C@H]1O
3 × 10^6 CFU/ml

----------
- Tested on: P. aeruginosa strain PAR 5 biofilm
- Procedure text: Mature biofilm model, Congo red staining
- Format: cell-based, Pseudomonas aeruginosa
- Assay context: mature biofilm, compound added 48 h after induction of biofilm, 96 hours
Experimental endpoint: absorbance (Congo red, biofilm development)

CCCCCC[C@H]1NC[C@@H](O)[C@H](O)[C@H]1O :: about 0.5 a.u.
CCC[C@H]1N[C@@H](CO)[C@H](O)[C@H]1O :: about 0.5 a.u.

----------
Entries and their number of viable P. aeruginosa values follow.
- Test system: P. aeruginosa strain PAR 5
- Procedure text: Number of viable bacteria in early and mature biofilm (viable count)
- Type: cell-based, Pseudomonas aeruginosa
- Assay context: early biofilm, 0 h

CCCCCC[C@H]1NC[C@@H](O)[C@H](O)[C@H]1O :: 2 × 10^6 CFU/ml
OCC(O)C[C@H]1NC[C@H](O)[C@H](O)[C@H]1O (stereo partly shown) :: 8 × 10^6 CFU/ml
COc1ccc(C[C@@H]2CCC[C@@H]3[C@H](O)[C@@H](O)[C@H](CO)N23)cc1 :: 6 × 10^6 CFU/ml

// switching to the query molecule
Dear colleague, please send me the reported number of viable P. aeruginosa for CCC[C@H]1N[C@@H](CO)[C@H](O)[C@H]1O when you can.
9 × 10^6 CFU/ml

----------
- Test system: P. aeruginosa strain PAR 5
- Procedure text: Antibiotic susceptibility test, disk diffusion (EUCAST)
- Type: cell-based, Pseudomonas aeruginosa
- Design: key: R means resistant to the antibiotic; S means sensitive to the antibiotic
- Assay context: disk load given per antibiotic
Experimental endpoint: Antibiotic susceptibility (according to EUCAST)

NCC[C@H](O)C(=O)N[C@@H]1C[C@H](N)[C@@H](O[C@H]2O[C@H](CN)[C@@H](O)[C@H](O)[C@H]2O)[C@H](O)[C@H]1O[C@H]1O[C@H](CO)[C@@H](O)[C@H](N)[C@H]1O :: S
NC[C@H]1O[C@H](O[C@H]2[C@H](O)[C@@H](O[C@H]3O[C@H](CO)[C@@H](O)[C@H](N)[C@H]3O)[C@H](N)C[C@@H]2N)[C@H](N)C[C@@H]1O :: S
CCN1CCN(C(=O)N[C@@H](C(=O)N[C@@H]2C(=O)N3[C@@H]2SC(C)(C)[C@@H]3C(=O)O)c2ccccc2)C(=O)C1=O :: S
O=C(O)c1cn(C2CC2)c2cc(N3CCNCC3)c(F)cc2c1=O :: S

Return Antibiotic susceptibility (according to EUCAST) for the following compound: CC(C)(O/N=C(\C(=O)N[C@@H]1C(=O)N2C(C(=O)[O-])=C(C[n+]3ccccc3)CS[C@H]12)c1csc(N)n1)C(=O)O
R

----------
number of viable P. aeruginosa for assorted compounds
- Test system: P. aeruginosa strain PAR 5
- Procedure text: Number of viable bacteria in early and mature biofilm (viable count)
- Assay type: cell-based, Pseudomonas aeruginosa
- Assay context: mature biofilm, 72 h

Example compounds with recorded number of viable P. aeruginosa:
OCC(O)C[C@H]1NC[C@H](O)[C@H](O)[C@H]1O (stereo partly shown) [Compound 2] :: 2 × 10^8 CFU/ml
CCCCCC[C@H]1NC[C@@H](O)[C@H](O)[C@H]1O [Compound 1] :: 2 × 10^8 CFU/ml
COc1ccc(C[C@@H]2CCC[C@@H]3[C@H](O)[C@@H](O)[C@H](CO)N23)cc1 [Compound 3] :: 2 × 10^8 CFU/ml

For CCC[C@H]1N[C@@H](CO)[C@H](O)[C@H]1O [Compound 4] , write its number of viable P. aeruginosa.
3 × 10^8 CFU/ml

----------
- Tested on: P. aeruginosa strain PAR 20 biofilm
- Procedure text: Mature biofilm model, Congo red staining
- Assay type: cell-based, Pseudomonas aeruginosa
- Assay context: mature biofilm, compound added 48 h after induction of biofilm, 48 hours
Experimental endpoint: absorbance (Congo red, biofilm development)

COc1ccc(C[C@@H]2CCC[C@@H]3[C@H](O)[C@@H](O)[C@H](CO)N23)cc1 [Compound 3] :: about 0.6 a.u.
OCC(O)C[C@H]1NC[C@H](O)[C@H](O)[C@H]1O (stereo partly shown) [Compound 2] :: about 0.6 a.u.

----------
- System: P. aeruginosa strain PAR 50 biofilm
- Procedure text: Reduction of biofilm growth (percent vs culture control)
- Format: cell-based, Pseudomonas aeruginosa
- Assay context: 48 hours of incubation
Experimental endpoint: reduction of biofilm growth

CCCCCC[C@H]1NC[C@@H](O)[C@H](O)[C@H]1O [Compound 1] :: about 0%
OCC(O)C[C@H]1NC[C@H](O)[C@H](O)[C@H]1O (stereo partly shown) [Compound 2] :: about 0%

----------
Below, each entry is listed alongside its reported number of viable P. aeruginosa.
- Tested on: P. aeruginosa strain PAR 5
- Procedure text: Number of viable bacteria in early and mature biofilm (viable count)
- Format: cell-based, Pseudomonas aeruginosa
- Assay context: early biofilm, 24 h

Look over these answered cases.
COc1ccc(C[C@@H]2CCC[C@@H]3[C@H](O)[C@@H](O)[C@H](CO)N23)cc1 :: 1 × 10^7 CFU/ml
CCCCCC[C@H]1NC[C@@H](O)[C@H](O)[C@H]1O :: 9 × 10^7 CFU/ml
OCC(O)C[C@H]1NC[C@H](O)[C@H](O)[C@H]1O (stereo partly shown) :: 1 × 10^7 CFU/ml

Identify number of viable P. aeruginosa associated with the compound CCC[C@H]1N[C@@H](CO)[C@H](O)[C@H]1O
9 × 10^7 CFU/ml
